This collection of values is drawn from patent US20210395248A1.

Entries and their measured CC50 at 4 days follow.
# Assay Method Text: Compound cytotoxicity, XTT-based colorimetric assay
# Assay type: cell-based
# Applied Conditions: human; uninfected MT2 cells, day 4, XTT; read-out: CC50

| Compound | Recorded Metric | Result |
| --- | --- | --- |
| Cn1nc(NS(C)(=O)=O)c2c(Cl)ccc(-n3c([C@H](Cc4cc(F)cc(F)c4)NC(=O)Cn4nc(C(F)F)c5c4C(F)(F)[C@@H]4C[C@H]54)nc4nc(NCCCF)ccc4c3=O)c21 (atropisomer, axis not shown; (P)) | CC50 at 4 days | > 100 nM |
| CC(F)CCNc1ccc2c(=O)n(-c3ccc(Cl)c4c(NS(C)(=O)=O)nn(C)c34)c([C@H](Cc3cc(F)cc(F)c3)NC(=O)Cn3nc(C(F)F)c4c3C(F)(F)[C@@H]3C[C@H]43)nc2n1 (stereo partly drawn) | CC50 at 4 days | > 100 nM |
| C[C@@H]1CN(c2ccc3c(=O)n(-c4ccc(Cl)c5c(NS(=O)(=O)C6CC6)nn(CC(F)F)c45)c([C@H](Cc4cc(F)cc(F)c4)NC(=O)Cn4nc(C(F)F)c5c4C(F)(F)[C@@H]4C[C@H]54)nc3n2)C[C@H](C)O1 (atropisomer, axis not shown; (aR)) | CC50 at 4 days | > 500 nM |
| Cn1nc(NS(C)(=O)=O)c2c(Cl)ccc(-n3c([C@H](Cc4cc(F)cc(F)c4)NC(=O)Cn4nc(C(F)F)c5c4C(F)(F)[C@@H]4C[C@H]54)nc4nc(N(CCC(F)(F)F)C5CCC5)ccc4c3=O)c21 (atropisomer, axis not shown; (P)) | CC50 at 4 days | > 100 nM |
| Cn1nc(NS(C)(=O)=O)c2c(Cl)ccc(-n3c([C@H](Cc4cc(F)cc(F)c4)NC(=O)Cn4nc(C(F)F)c5c4C(F)(F)[C@@H]4C[C@H]54)nc4nc(NCCC(C)(F)F)ccc4c3=O)c21 (atropisomer, axis not shown; (P)) | CC50 at 4 days | > 100 nM |
| Cn1nc(NS(C)(=O)=O)c2c(Cl)ccc(-n3c([C@H](Cc4cc(F)cc(F)c4)NC(=O)Cn4nc(C(F)F)c5c4C(F)(F)[C@@H]4C[C@H]54)nc4nc(NCCC(F)(F)F)ccc4c3=O)c21 (atropisomer, axis not shown; (P)) | CC50 at 4 days | > 100 nM |
| Cn1nc(NS(C)(=O)=O)c2c(Cl)ccc(-n3c([C@H](Cc4cc(F)cc(F)c4)NC(=O)Cn4nc(C(F)F)c5c4C(F)(F)[C@@H]4C[C@H]54)nc4nc(N5CCCOCC5)ccc4c3=O)c21 (atropisomer, axis not shown; (P)) | CC50 at 4 days | > 100 nM |
| Cn1nc(NS(C)(=O)=O)c2c(Cl)ccc(-n3c([C@H](Cc4cc(F)cc(F)c4)NC(=O)Cn4nc(C(F)F)c5c4C(F)(F)[C@@H]4C[C@H]54)nc4nc(NCCCC(F)(F)F)ccc4c3=O)c21 (atropisomer, axis not shown; (P)) | CC50 at 4 days | > 100 nM |

Report CC50 at 4 days for C[C@@H]1CN(c2ccc3c(=O)n(-c4ccc(Cl)c5c(NS(C)(=O)=O)nn(CC(F)(F)F)c45)c([C@H](Cc4cc(F)cc(F)c4)NC(=O)Cn4nc(C(F)F)c5c4C(F)(F)[C@@H]4C[C@H]54)nc3n2)C[C@H](C)O1 (atropisomer, axis not shown; (aR))
> 500 nM
